Numbers sourced from ChEMBL document CHEMBL1201862.

# Tested on: 786-0
# ASSAY PROTOCOL: NCI tumour cell line growth inhibition, 48 h
The source made the active and inactive calls. Rule as the data show it: active = GI50 up to about 1.1 µM and inactive = higher.
PROPERTY MEASURED: GI50

Below are worked cases with known answers.
MOLECULE: COc1cc(C)c2c(=O)c3ccccc3n(C)c2c1
GI50: 10.6 µM (inactive)

MOLECULE: COC(=O)c1c(O)ccc2[nH]c3c(O)c4ccccc4cc3c12
GI50: 32 µM (inactive)

MOLECULE: COC(=O)C1C2CCCN2OC1(C)CO (stereo not given)
GI50: > 100 µM (inactive)

MOLECULE: C[N+]1([O-])CCC(O)(C2CC2)CC1 (stereo not given)
GI50: > 100 µM (inactive)

MOLECULE: Cc1ccc(C(=O)N/N=C(\N=N\c2cccc([N+](=O)[O-])c2)c2ccc(N(CCC#N)CCC#N)cc2C)cc1
GI50: 34.4 µM (inactive)

MOLECULE: Fc1cccc(F)c1C1SCc2nc3cc(Cl)ccc3n21 (stereo not given)
GI50: 25.7 µM (inactive)

MOLECULE: Cc1cccc2c(N)c3cccc(C(=O)NCC[N+](C)(C)Cc4ccccc4[N+](=O)[O-])c3nc12
GI50: 4.22 µM (inactive)

MOLECULE: COc1ccc(C(=O)c2[nH]c(Nc3ccc(Cl)cc3)c(C(=S)Nc3ccccc3)c2N)cc1
GI50: > 100 µM (inactive)

Prompt: Answer with reported GI50 of `Cc1ccc(C2=C(c3ccccc3)C(Br)(c3ccc(C)cc3)C(c3ccccc3)=C2c2ccc(C)cc2)cc1`
Completion: > 100 µM (inactive)

Prompt: Answer with reported GI50 of COC(=O)OCC1OC(N2C(=O)NC(=O)C(Br)C2N=[N+]=[N-])CC1OC(=O)OC (stereo not given)
Completion: > 100 µM (inactive)

====

# System: SNB-75
# ASSAY PROTOCOL: NCI tumour cell line growth inhibition, 48 h
The source made the active and inactive calls. Cut-off read from the data, not from the text of the source: active = GI50 up to about 1.1 µM and inactive = higher.
The categories you may choose from are active, inactive

Prompt: Outcome logged for `COc1ccc(NC(=O)CC(=O)n2nc(C)c(/N=N/c3ccccc3C(=O)O)c2C)cc1` in this assay:
Completion: inactive

Prompt: Outcome logged for `Cc1ccccc1N/C(N)=N/C#N` in this assay:
Completion: inactive

Prompt: Outcome logged for CCCCCCCCCC[C@@H](O)[C@H]1CC[C@@H]([C@H]2CC[C@H]([C@H](O)CCCCCCCCCC[C@@H]3CC(CC(C)=O)C(=O)O3)O2)O1 (stereo not given in full) in this assay:
Completion: inactive

Prompt: Outcome logged for CN(C)CCOc1ccc2[nH]c(C(=O)N3CC(CCl)c4c3cc(N)c3ccccc43)cc2c1 (stereo not given) in this assay:
Completion: active

Prompt: Outcome logged for CN1C(=O)NC2(O)c3ccccc3C(=O)C12O (stereo not given) in this assay:
Completion: inactive

====

# Test system: ACHN
# ASSAY PROTOCOL: NCI tumour cell line growth inhibition, 48 h
Activity calls are given as the source filed them. Rule as the data show it: active = GI50 up to about 1.1 µM and inactive = higher.
The categories you may choose from are active, inactive

Reference set (5 entries):
COMPOUND: CCN(CC)CCCOc1cc2c(cc1OC)C(=O)N1CCC[C@H]1C=N2
CAT: inactive
//
COMPOUND: CCCCC1Cc2cc(O)ccc2-c2nc3cc(O)ccc3n21.CCCCC1Cc2cc(O)ccc2-c2nc3ccc(O)cc3n21 (stereo unspecified)
CAT: inactive
//
COMPOUND: CCOc1cc2c(NCCCN(CCO)CCO)ncnc2c(OCC)c1OCC
CAT: inactive
//
COMPOUND: COc1ccc(C(=O)c2[nH]c(Nc3ccc(Cl)cc3)c(C(=S)Nc3ccccc3)c2N)cc1
CAT: inactive
//
COMPOUND: Cc1ccc(S(=O)(=O)N/N=C2/C3CCC(C3)C2c2ccccc2)cc1 (stereo unspecified)
CAT: inactive

Prompt: Outcome logged for `O=C1Nc2cccc(Cl)c2/C1=C\c1cccnc1` in this assay:
Completion: inactive

Prompt: Outcome logged for CC(=O)O[C@H]1[C@H](OC(=O)CC(C)(O)CC(=O)O)C[C@]2(C)C3=C(CCC2C1(C)C)[C@]1(C)CC[C@H]([C@H]2CC[C@H](C(C)(C)O)OC2O)[C@@]1(C)[C@@H](O)C3 (stereo partly specified) in this assay:
Completion: inactive

Prompt: Outcome logged for `Cc1cc(-n2c(/C=C/c3ccc(Cl)cc3)nc3cc(Cl)ccc3c2=O)on1` in this assay:
Completion: inactive

Prompt: Outcome logged for `O=c1[nH]cc(NCCCl)c(=O)[nH]1` in this assay:
Completion: inactive

Prompt: Outcome logged for N#CNC1=NC(CCCC(=O)Nc2cccc([N+](=O)[O-])c2)=C(c2nc3ccccc3[nH]2)C(N)N1 (stereo unspecified) in this assay:
Completion: inactive

Prompt: Outcome logged for `Clc1ccc2c(NCCNc3ccnc4cc(Cl)ccc34)ccnc2c1` in this assay:
Completion: inactive

Prompt: Outcome logged for OCCN1CCN2C=C(C3CCCC4N(CCO)CCN34)CCC21 (stereo unspecified) in this assay:
Completion: inactive

Prompt: Outcome logged for `CSc1nc(NC(=O)O)c(N(C(C)=O)C(=O)O)c(=O)n1C` in this assay:
Completion: inactive
